These entries and their values trace back to PubChem BioAssay AID2060621.

- Tested on: 324938-238-R-J1-PDC complex spheroids viability
- protocol-text: Anticancer human tumor 324938-238-R-J1-PDC patient-derived bladder carcinoma cell line growth inhibition [CLK]
- condition-set: second compound 0.0316 µM; first compound 0.316 µM; stronger effect = lower value
The following molecules are listed with their measured viability, T/C values.
Lab book: enter the figure in %, no units written.

In the examples that follow, each entry is paired with its recorded viability, T/C.
C#Cc1c(F)ccc2cc(O)cc(-c3ncc4c(N5CC6CCC(C5)N6)nc(OCC56CCCN5CC(F)C6)nc4c3F)c12 (stereo not drawn) + CNC(=O)c1ccc(Nc2nc(OC3CCCC3)c3c(-c4ccc5nc(C)oc5c4)c[nH]c3n2)c(OC)c1 ... 71.8
COc1ccc([C@@H](O)c2cc(-c3ncnc4cc(N5CCOCC5)ccc34)c(F)cc2Cl)nn1 + CN1CCN(c2cc(C(=O)Nc3cc4cc(-c5cnn(C)c5)ccc4cn3)ccn2)CC1 ... 65.8

[in] Look at this molecule and give its reported viability, T/C. CCc1c2c(nc3ccc(O)cc13)-c1cc3c(c(=O)n1C2)COC(=O)[C@]3(O)CC + CNC(=O)c1ccc(Nc2nc(OC3CCCC3)c3c(-c4ccc5nc(C)oc5c4)c[nH]c3n2)c(OC)c1
[out] 11.2

###

- Tested on: 324938-238-R-J1-PDC complex spheroids viability
- protocol-text: Anticancer human tumor 324938-238-R-J1-PDC cell line growth inhibition [CLK]
- condition-set: second compound 0.0316 µM; first compound 0.316 µM; stronger effect = lower value
recorded-endpoint: viability, T/C

CC(CO)NC(=O)c1cc(-c2ccc(Cl)cc2)nn(-c2cnn(C)c2)c1=O (configuration not stated) + CN1CCN(c2cc(C(=O)Nc3cc4cc(-c5cnn(C)c5)ccc4cn3)ccn2)CC1 ... 83.5%

Turning now to a further record.
[in] Need viability, T/C, item CC(=O)O[C@H]1C(=O)[C@@]2(C)[C@H]([C@H](OC(=O)c3ccccc3)[C@]3(O)C[C@H](OC(=O)[C@H](O)[C@@H](NC(=O)c4ccccc4)c4ccccc4)C(C)=C1C3(C)C)[C@]1(OC(C)=O)CO[C@@H]1C[C@@H]2O + CNC(=O)c1ccc(Nc2nc(OC3CCCC3)c3c(-c4ccc5nc(C)oc5c4)c[nH]c3n2)c(OC)c1
[out] 13.8%

###

- System: 324938-238-R-J1-PDC complex spheroids viability
- protocol-text: Anticancer human tumor 324938-238-R-J1-PDC cell line growth inhibition [CLK];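 further: viability read after seven days of drug exposure; 100% = DMSO vehicle control wells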
- condition-set: second compound 3.16 µM; first compound 0.1 µM; stronger effect = lower value
- Text: A high-throughput screen of multi-cell type tumor spheroids was designed to identify active combinations of […] and targeted small molecules. Complex spheroids include a stromal component modeled by human endothelial cells (HUVEC) and fibroblasts modeled by human mesenchymal stem cells (MSCs). […] Compounds. […] If the clinical Cmax for an agent had not been determined, the highest concentration tested was 10 microM. […]
// boundary case: viability, T/C equal to 0.5% maps to 0 (no); strictly smaller maps to 1 (yes)

[in] Quick check: does CC1COCCN1c1cc(C2(S(C)(=N)=O)CC2)nc(-c2ccnc3[nH]ccc23)n1 (stereo unspecified) + CNC(=O)c1ccc(Nc2nc(OC3CCCC3)c3c(-c4ccc5nc(C)oc5c4)c[nH]c3n2)c(OC)c1 have viability, T/C under 0.5%?
[out] 0 (no)

###

- Tested on: 324938-238-R-J1-PDC complex spheroids viability
- protocol-text: Anticancer human tumor 324938-238-R-J1-PDC cell line growth inhibition [CLK];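 further: viability read after seven days of drug exposure; 100% = DMSO vehicle control wells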
- condition-set: second compound 0.0316 µM; first compound 0.316 µM; stronger effect = lower value
Category key, based on recorded viability, T/C: low group: < 40%; middle group: ≥ 40% and < 70%; high group: ≥ 70%

C=CC(=O)N1CCN(c2nc(=O)n(-c3c(C)ccnc3C(C)C)c3nc(-c4c(O)cccc4F)c(F)cc23)C(C)C1 (stereo unspecified) + CN1CCN(c2cc(C(=O)Nc3cc4cc(-c5cnn(C)c5)ccc4cn3)ccn2)CC1 ... high group
C=CC(=O)N1CCN(c2nc(=O)n(-c3c(C)ccnc3C(C)C)c3nc(-c4c(O)cccc4F)c(F)cc23)C(C)C1 (stereo unspecified) + CNC(=O)c1ccc(Nc2nc(OC3CCCC3)c3c(-c4ccc5nc(C)oc5c4)c[nH]c3n2)c(OC)c1 ... high group
O=c1[nH]cc(F)c(=O)[nH]1 + CNC(=O)c1ccc(Nc2nc(OC3CCCC3)c3c(-c4ccc5nc(C)oc5c4)c[nH]c3n2)c(OC)c1 ... middle group
CC1(C)CCC(CN2CCN(c3ccc(C(=O)NS(=O)(=O)c4ccc(NCC5CCOCC5)c([N+](=O)[O-])c4)c(Oc4cnc5[nH]ccc5c4)c3)CC2)=C(c2ccc(Cl)cc2)C1 + CN1CCN(c2cc(C(=O)Nc3cc4cc(-c5cnn(C)c5)ccc4cn3)ccn2)CC1 ... high group
CCc1c2c(nc3ccc(O)cc13)-c1cc3c(c(=O)n1C2)COC(=O)[C@]3(O)CC + CN1CCN(c2cc(C(=O)Nc3cc4cc(-c5cnn(C)c5)ccc4cn3)ccn2)CC1 ... low group
Nc1ccn(C2OC(CO)C(O)C2(F)F)c(=O)n1 (stereo unspecified) + CN1CCN(c2cc(C(=O)Nc3cc4cc(-c5cnn(C)c5)ccc4cn3)ccn2)CC1 ... low group

[in] State the class of the molecule shown: O=C(c1cc(Cc2n[nH]c(=O)c3ccccc23)ccc1F)N1CCN(C(=O)C2CC2)CC1 + CN1CCN(c2cc(C(=O)Nc3cc4cc(-c5cnn(C)c5)ccc4cn3)ccn2)CC1
[out] middle group

[in] Also check COC1C=CCC(C)C(C)S(=O)(=O)NC(=O)c2ccc3c(c2)N(CC2CCC21)CC1(CCCc2cc(Cl)ccc21)CO3 (stereo unspecified) + CN1CCN(c2cc(C(=O)Nc3cc4cc(-c5cnn(C)c5)ccc4cn3)ccn2)CC1
[out] middle group

[in] Lookup Nc1ccn(C2OC(CO)C(O)C2(F)F)c(=O)n1 (stereo unspecified) + CNC(=O)c1ccc(Nc2nc(OC3CCCC3)c3c(-c4ccc5nc(C)oc5c4)c[nH]c3n2)c(OC)c1
[out] low group

###

- Tested on: 324938-238-R-J1-PDC complex spheroids viability
- protocol-text: Anticancer human tumor 324938-238-R-J1-PDC cell line growth inhibition [CLK];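 further: viability read after seven days of drug exposure; 100% = DMSO vehicle control wells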
- condition-set: second compound 10 µM; first compound 0.1 µM; stronger effect = lower value
// boundary case: viability, T/C equal to 10% maps to false (0); strictly smaller maps to true (1)

CCc1c2c(nc3ccc(O)cc13)-c1cc3c(c(=O)n1C2)COC(=O)[C@]3(O)CC + CN1CCN(c2cc(C(=O)Nc3cc4cc(-c5cnn(C)c5)ccc4cn3)ccn2)CC1 ... true (1)
C#Cc1c(F)ccc2cc(O)cc(-c3ncc4c(N5CC6CCC(C5)N6)nc(OCC56CCCN5CC(F)C6)nc4c3F)c12 (stereo not given) + CNC(=O)c1ccc(Nc2nc(OC3CCCC3)c3c(-c4ccc5nc(C)oc5c4)c[nH]c3n2)c(OC)c1 ... false (0)
CC(Nc1ccc2c(c1)OCCn1cc(N3C(=O)OCC3C(F)F)nc1-2)C(N)=O (stereo not given) + CNC(=O)c1ccc(Nc2nc(OC3CCCC3)c3c(-c4ccc5nc(C)oc5c4)c[nH]c3n2)c(OC)c1 ... true (1)

[in] Please check: viability, T/C for CC(Nc1ccc2c(c1)OCCn1cc(N3C(=O)OCC3C(F)F)nc1-2)C(N)=O (stereo not given) + CN1CCN(c2cc(C(=O)Nc3cc4cc(-c5cnn(C)c5)ccc4cn3)ccn2)CC1 , strictly under 10% or not?
[out] true (1)

[in] Again, but for O=C(c1cc(Cc2n[nH]c(=O)c3ccccc23)ccc1F)N1CCN(C(=O)C2CC2)CC1 + CNC(=O)c1ccc(Nc2nc(OC3CCCC3)c3c(-c4ccc5nc(C)oc5c4)c[nH]c3n2)c(OC)c1
[out] false (0)

###

Each entry below carries its reported viability, T/C.
- Test system: 324938-238-R-J1-PDC complex spheroids viability
- protocol-text: Anticancer human tumor 324938-238-R-J1-PDC cell line growth inhibition [CLK];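 further: viability read after seven days of drug exposure; 100% = DMSO vehicle control wells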
- condition-set: second compound 0.1 µM; first compound 0.000949 µM; stronger effect = lower value
Please give a number only; it is taken to be in %.

CC(C)CC(NC(=O)C(Cc1ccccc1)NC(=O)c1cnccn1)B(O)O (centres undefined) + CN1CCN(c2cc(C(=O)Nc3cc4cc(-c5cnn(C)c5)ccc4cn3)ccn2)CC1 ... 46.9
C=CC(=O)Nc1cc(Nc2nccc(-c3cn(C)c4ccccc34)n2)c(OC)cc1N(C)CCN(C)C + CNC(=O)c1ccc(Nc2nc(OC3CCCC3)c3c(-c4ccc5nc(C)oc5c4)c[nH]c3n2)c(OC)c1 ... 30.5
CC(C)CC(NC(=O)C(Cc1ccccc1)NC(=O)c1cnccn1)B(O)O (centres undefined) + CNC(=O)c1ccc(Nc2nc(OC3CCCC3)c3c(-c4ccc5nc(C)oc5c4)c[nH]c3n2)c(OC)c1 ... 37.7

As a next step, examine the molecule that follows.
[in] Recorded viability, T/C for C=CC(=O)Nc1cc(Nc2nccc(-c3cn(C)c4ccccc34)n2)c(OC)cc1N(C)CCN(C)C + CN1CCN(c2cc(C(=O)Nc3cc4cc(-c5cnn(C)c5)ccc4cn3)ccn2)CC1 with 324938-238-R-J1-PDC complex spheroids viability, please?
[out] 60.3
